tested on: DMS-114 (Small Cell Lung Carcinoma); assay: combination Emax (second highest fraction inhibited in the dose matrix, 72 h); higher = more inhibition; extreme values may be limits of the assay
measurement_kind: combination Emax
Quick one: just the number, no unit, thanks!

Input line: For the record CCc1c2c(nc3ccc(O)cc13)-c1cc3c(c(=O)n1C2)COC(=O)[C@]3(O)CC [SN-38] + O=C(c1cc(Cc2n[nH]c(=O)c3ccccc23)ccc1F)N1CCN(C(=O)C2CC2)CC1 [Olaparib] (first compound max 0.3 µM, 7x7, partner max 10 µM) , what value of combination Emax is listed for DMS-114 (Small Cell Lung Carcinoma)?
Output line: 0.491

Input line: For the record O=C(c1cc(Cc2n[nH]c(=O)c3ccccc23)ccc1F)N1CCN(C(=O)C2CC2)CC1 [Olaparib] + COc1nnc2ccc(N3CCC(c4ccc(OCCN5CCN(C)C(=O)[C@H]5C)cc4)CC3)nn12 [AZD5153] (first compound max 10 µM, 7x7, partner max 1 µM) , what value of combination Emax is listed for DMS-114 (Small Cell Lung Carcinoma)?
Output line: 0.514

* * *

system: VMRC-RCZ (Kidney Carcinoma); test: Bliss excess, mean over the matrix (fraction); higher = more synergy;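 further: after 72 h of two-drug dosing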
measurement_kind: Bliss excess
Quick one: just the number, no unit, thanks!

Input line: I would be grateful if you could share the reported Bliss excess for NC1(C(=O)N[C@@H](CCO)c2ccc(Cl)cc2)CCN(c2ncnc3[nH]ccc23)CC1 [Capivasertib] + CC(C)n1c(=O)n(C)c2cnc3cc(F)c(-c4ccc(OCCCN5CCCCC5)nc4)cc3c21 [AZD1390] (first compound max 10 µM, 7x7, partner max 0.3 µM) .
Output line: -0.035

Input line: I would be grateful if you could share the reported Bliss excess for Cc1c2c(nn1C)CSCc1cc(n(C)n1)CSc1cc(c3ccccc3c1)OCCCc1c(C(=O)O)n(C)c3c-2c(Cl)ccc13 [AZD5991] + Cc1cc2ncnn2cc1Nc1ncc2c(n1)n(C1CCOCC1)c(=O)n2C [AZD7648] (first compound max 1 µM, 7x7, partner max 10 µM) .
Output line: -0.0405

Input line: I would be grateful if you could share the reported Bliss excess for C[C@@H](c1ccc2nccn2c1)n1nnc2ncc(-c3cnn(C)c3)nc21 [Savolitinib] + CC1(C)CCC(CN2CCN(c3ccc(C(=O)NS(=O)(=O)c4ccc(NCC5CCOCC5)c([N+](=O)[O-])c4)c(Oc4cnc5[nH]ccc5c4)c3)CC2)=C(c2ccc(Cl)cc2)C1 [Venetoclax] (first compound max 1 µM, 7x7, partner max 1 µM) .
Output line: -0.0374

Input line: I would be grateful if you could share the reported Bliss excess for COc1cccc(OCCCN)c1-c1cc(Nc2cnc(C#N)cn2)n[nH]1 [Prexasertib] + CCc1c2c(nc3ccc(O)cc13)-c1cc3c(c(=O)n1C2)COC(=O)[C@]3(O)CC [SN-38] (first compound max 1 µM, 7x7, partner max 0.3 µM) .
Output line: 0.0578

Input line: I would be grateful if you could share the reported Bliss excess for CN(CCO)CC[C@H](CSc1ccccc1)Nc1ccc(S(=O)(=O)NC(=O)c2ccc(N3CCC([C@@H](O)c4ccccc4-c4ccc(Cl)cc4)CC3)cc2)cc1S(=O)(=O)C(F)(F)F [AZD4320] + CCN(CCO)CCCOc1ccc2c(Nc3cc(CC(=O)Nc4cccc(F)c4)[nH]n3)ncnc2c1 [AZD2811] (first compound max 1 µM, 7x7, partner max 1 µM) .
Output line: -0.0508

Input line: I would be grateful if you could share the reported Bliss excess for COc1cccc(OCCCN)c1-c1cc(Nc2cnc(C#N)cn2)n[nH]1 [Prexasertib] + C=CCn1c(=O)c2cnc(Nc3ccc(N4CCN(C)CC4)cc3)nc2n1-c1cccc(C(C)(C)O)n1 [AZD1775] (first compound max 1 µM, partner max 1 µM) .
Output line: -0.02

Input line: I would be grateful if you could share the reported Bliss excess for Cc1c2c(nn1C)CSCc1cc(n(C)n1)CSc1cc(c3ccccc3c1)OCCCc1c(C(=O)O)n(C)c3c-2c(Cl)ccc13 [AZD5991] + CC(=O)O[C@H]1C(=O)[C@@]2(C)[C@H]([C@H](OC(=O)c3ccccc3)[C@]3(O)C[C@H](OC(=O)[C@H](O)[C@@H](NC(=O)c4ccccc4)c4ccccc4)C(C)=C1C3(C)C)[C@]1(OC(C)=O)CO[C@@H]1C[C@@H]2O [Paclitaxel] (first compound max 1 µM, 7x7, partner max 3 µM) .
Output line: -0.0234

Input line: I would be grateful if you could share the reported Bliss excess for CC1(C)CCC(CN2CCN(c3ccc(C(=O)NS(=O)(=O)c4ccc(NCC5CCOCC5)c([N+](=O)[O-])c4)c(Oc4cnc5[nH]ccc5c4)c3)CC2)=C(c2ccc(Cl)cc2)C1 [Venetoclax] + Cn1cnc2c(F)c(Nc3ccc(Br)cc3Cl)c(C(=O)NOCCO)cc21 [Selumetinib] (first compound max 1 µM, 7x7, partner max 3 µM) .
Output line: -0.0422
